Test system: Noggin (protein binding on small-molecule microarray)
assay.name: Noggin binders on small-molecule microarray, primary screen, biochemical, 635/667 nm fluorescence (AID 1095);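 further: score merges 667 nm feature fluorescence with signal to noise over triplicate slides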
particulars: 635 nm fluorescence, higher = more signal
observation.type: composite z-score

[
  {
    "compound": "N#Cc1ccc(NN2C(C(O)c3ccc([N+](=O)[O-])cc3)C=CC3C(=O)N(c4ccccc4)C(=O)C32)cc1 (configuration not stated)",
    "observed.value": -0.299
  },
  {
    "compound": "NC(=O)NCC#Cc1ccc2c(c1)[C@]1(C(=O)N2)[C@H](C(=O)NC[C@H](O)c2ccccc2)[C@H]2C(=O)O[C@H](c3ccccc3)[C@H](c3ccccc3)N2[C@@H]1c1ccc(O)cc1",
    "observed.value": 1.27
  },
  {
    "compound": "O=C1C[C@@](C(=O)NC2CC2)(c2ccc([N+](=O)[O-])cc2)[C@@H](c2ccc(CO)cc2)N1CC12CC3CC(CC(C3)C1)C2",
    "observed.value": 0.883
  },
  {
    "compound": "CCCCCCc1nc(CCCc2cc3c(c(CCCCCC)n2)[Si](C(C)C)(C(C)C)OC3)cc2c1[Si](C(C)C)(C(C)C)OC2",
    "observed.value": 0.257
  },
  {
    "compound": "CC(C)N1C(=O)[C@@]2(c3ccc([N+](=O)[O-])cc3)CC(=O)N(CC34CC5CC(CC(C5)C3)C4)[C@@H]2c2ccc(CO)cc21",
    "observed.value": -0.337
  },
  {
    "compound": "CCN(CC)c1ccc(N2CC=CC34O[C@@H]5C=CCCOC(=O)C5[C@H]3C(=O)N(CCCCCO)[C@@H]4C2=O)cc1 (some centres not stated)",
    "observed.value": -0.514
  },
  {
    "compound": "CC(c1ccccc1)C(O)C1C=CC2C(=O)NC(=O)C2N1Nc1ccccn1 (configuration not stated)",
    "observed.value": 0.361
  }
]
